Just for reference, patent US20070196883A1 is where these values come from.

Target: T1, His-PDK1 (Myc-PDK1 with an N-terminal hexahistidine sequence, from Sf21 insect cells) (human, UniProt O15530 1-556)
T1 construct: Purified by Ni-NTA agarose, >90% homogeneous; also called His-tagged PDK1
T1 sequence: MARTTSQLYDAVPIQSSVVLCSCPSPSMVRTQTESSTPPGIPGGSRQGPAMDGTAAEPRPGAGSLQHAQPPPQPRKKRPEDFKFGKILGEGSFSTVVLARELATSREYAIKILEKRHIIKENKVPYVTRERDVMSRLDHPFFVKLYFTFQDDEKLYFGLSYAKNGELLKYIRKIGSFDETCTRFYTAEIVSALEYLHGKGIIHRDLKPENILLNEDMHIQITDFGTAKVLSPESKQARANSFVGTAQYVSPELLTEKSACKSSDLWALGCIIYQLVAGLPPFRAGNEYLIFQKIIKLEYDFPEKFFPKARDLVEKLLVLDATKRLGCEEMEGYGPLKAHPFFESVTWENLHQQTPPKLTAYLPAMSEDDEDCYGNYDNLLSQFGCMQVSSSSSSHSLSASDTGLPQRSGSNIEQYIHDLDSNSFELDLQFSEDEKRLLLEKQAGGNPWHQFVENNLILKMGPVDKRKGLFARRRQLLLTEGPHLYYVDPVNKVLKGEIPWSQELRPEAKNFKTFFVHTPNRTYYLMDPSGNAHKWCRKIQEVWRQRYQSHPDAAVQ
Experiment: SPR competition: 0.5 µM His-PDK1 mixed with 0-3 µM free Region B peptide, injected over the immobilised peptide
Measurement Kind: Kd (nM)
One number for each entry, in nM.

Look at this binder and give its reported Kd. REPRILSEEEQEMFRDFDYIADWC (also called free peptide; wild type peptide) [Region B peptide (24 residue synthetic peptide corresponding to Region B of PIF)]
1500
